# system.under.test: tyrosinase (Agaricus bisporus, UniProt C7FF04)
# Sequence (C7FF04 1-392 limits assumed): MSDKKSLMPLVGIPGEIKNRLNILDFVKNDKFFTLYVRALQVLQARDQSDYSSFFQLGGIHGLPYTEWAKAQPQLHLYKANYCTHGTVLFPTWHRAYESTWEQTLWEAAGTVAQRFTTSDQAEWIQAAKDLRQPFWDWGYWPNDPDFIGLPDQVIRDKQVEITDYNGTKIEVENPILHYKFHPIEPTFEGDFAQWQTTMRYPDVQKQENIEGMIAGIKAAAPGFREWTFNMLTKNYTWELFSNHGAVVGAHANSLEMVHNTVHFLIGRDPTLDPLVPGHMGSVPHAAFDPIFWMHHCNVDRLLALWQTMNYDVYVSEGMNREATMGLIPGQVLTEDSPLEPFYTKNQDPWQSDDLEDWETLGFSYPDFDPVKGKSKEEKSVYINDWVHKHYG
# protocol.text: Slow-binding (time-dependent) inhibition kinetics
# Method: These curves were calculated by the following Equation (1):(1) [P]=vst+vi−vs/kobs[1−exp(−kobst)] where [P] is the concentration of product from the catalytic reaction, and the first-order rate constant (kobs) is the slow-binding constant corresponding to vi and vs. The plot of kobs versus [inhibitor, I] is represented in Figure 3B. First, the initial enzyme–ligand complex (E·I) forms rapidly, and then the isomerized enzyme–ligand complex (E*·I) forms slowly. […]
metric: pKi
Interpret pKi as the negative base-10 log of the concentration measured in mol/L.

Q: Look up pKi: `O=c1c2c(O)cc(O)cc2oc2oc3cc(O)ccc3c12`
Ans: 4.45
